Catalogue of logD readings, one per entry.
Assay: Lipophilicity, log D of the compound
Type: physicochemical
Conditions: octanol/water

- compound structure string: "C[C@@]1(c2cccc(Nc3ccc(C4CC4)nc3)c2Cl)CC(=O)N(C2CCOCC2)C(=N)N1"
  logD: 2.1
- compound structure string: "C[C@H]1C[C@@H](N2C(=N)N[C@](C)(c3cccc(Nc4ccc(C5CC5)nc4)c3Cl)CC2=O)CCO1"
  logD: 2.5
- compound structure string: "C[C@@]1(c2cccc(Nc3ccccc3)c2Cl)CC(=O)N(C2CCOCC2)C(=N)N1"
  logD: 2.2
- compound structure string: "[H]/N=C1\\N[C@](C)(c2cccc(Nc3cnc(C4CC4)nc3)c2Cl)CC(=O)N1[C@H]1CCO[C@@H](C)C1"
  logD: 2
- compound structure string: "C[C@@]1(c2cccc(NC(=O)c3ccccc3)c2Cl)CC(=O)N(C2CCOCC2)C(=N)N1"
  logD: 1.2
